Tested on: RARa:RXR (NR concentration 270 nM, RXRa partner concentration 90 nM)
Test: PBM binding z-score (relative to random genomic background probes); higher = stronger binding; sequences stand for … in GC…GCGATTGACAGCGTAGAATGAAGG
Provide the reported PBM binding z-score of each item.
Numbers only.

Examples with their reported PBM binding z-score follow.
1) CCTTCCGGGTCAAGGTTATAGCACGGGTGGTACG :: 4.25
2) TCAGGCAGGTGAAGGTAACTCAGGTACGCAGTCG :: 0.355
3) CCGAGTAGGTTATGGGGCATTCTGGCAACGGTGA :: 0.523

Here's the next entry for you.
Ask: Requested read-out: PBM binding z-score. Entry: CGTCCAAGGTCAGAAGGTCAGTGAAAGCGACGTG
Reply: 5.89

====

Test system: LXRb homodimer (NR concentration 270 nM)
Assay: PBM binding z-score (relative to random genomic background probes); higher = stronger binding; sequences stand for … in GC…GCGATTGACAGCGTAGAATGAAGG
Lab note: compare PBM binding z-score against 0.04. Equal or greater, write 1 (yes). Smaller, write 0 (no).

Some solved cases for reference:
1) GGAACGAGGGCAACTTGATAGCAGAGTTTGATGG :: 0 (no)
2) TCTATTAGTTGATGAGGGCAACCGAAACAGCGGA :: 1 (yes)
3) ACTATCAGGCCAAGTTTGGGTCACTCAAACAAAG :: 1 (yes)

Ask: Kindly determine if PBM binding z-score recorded for ATCTCTAGGTAAACTTCAGTGAAAGATCGATAGA is above or exactly 0.04.
Reply: 1 (yes)

Ask: Kindly determine if PBM binding z-score recorded for CGTCCAAGGTCAACGTCAGTGAAAGAGACTCGAA is above or exactly 0.04.
Reply: 1 (yes)

Ask: Kindly determine if PBM binding z-score recorded for TCATATAGGTAAAAGGTGAAAGTTGGTGTGGTAA is above or exactly 0.04.
Reply: 1 (yes)

Ask: Kindly determine if PBM binding z-score recorded for AGTCAAAGTTCACTAGGTAACGAAAGATTCAGCT is above or exactly 0.04.
Reply: 1 (yes)

Ask: Kindly determine if PBM binding z-score recorded for ATGGAAAGGTCGAAGGTGAGTATACCCACCCGAA is above or exactly 0.04.
Reply: 1 (yes)

Ask: Kindly determine if PBM binding z-score recorded for TCATATAGGTCATACAGGTGAAAGTCGGCATCTA is above or exactly 0.04.
Reply: 1 (yes)

Ask: Kindly determine if PBM binding z-score recorded for CCTACTGGGCCAAATAGGTCATTGATGCCGATAA is above or exactly 0.04.
Reply: 0 (no)

Ask: Kindly determine if PBM binding z-score recorded for TCTTGTCGATCAGCAGGTTAAGAAAGCTGGCCAA is above or exactly 0.04.
Reply: 0 (no)

Ask: Kindly determine if PBM binding z-score recorded for TCTTATAGGTAATACAGGTGAAAGTCGGCATCTA is above or exactly 0.04.
Reply: 1 (yes)

Ask: Kindly determine if PBM binding z-score recorded for CCTTCTAGGTCATGGTCAGCTAATCTACAGTATG is above or exactly 0.04.
Reply: 1 (yes)

====

Provide the reported PBM binding z-score of each item.
System: PPARg homodimer (NR concentration 180 nM)
Test: PBM binding z-score (relative to random genomic background probes); higher = stronger binding; sequences stand for … in GC…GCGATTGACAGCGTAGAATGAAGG
Numbers only.

1) CCTTACGGGCCACTGACAGGTTATAGCATTTGGA :: 0.129
2) CTAGACAGGTGAAAGGTAACTCAGTCTGGTACGC :: 0.635

Each of the following entries comes with a recorded value; kindly state PBM binding z-score for each.
1. TCGCCTAGGTCAGATCGGGCCAGTATACGCTATA
2. AGAATGAGGTTCAGATCAGGGAAACAGAATACAT
3. TCATATAGGTAAAAGGTGAAAGCCGGTGTGGTAA

Reply:
[-0.2, 0.165, 1.42]

Each of the following entries comes with a recorded value; kindly state PBM binding z-score for each.
1. TCGAGTAGGTTAGTCGGGGCATGCAGCCAACATA
2. GATACAGGGTCAGCTAGAGGCCAGAGTATGGAAA
3. GCTTGTAGATCAAGGTTAAGACAGACTAAGCTAA
4. TAGCCTAGGGCATTGGGCCAGTATAGTACGCATC

Reply:
-0.293
3.5
0.0438
-1.01
